- TARGET ENTITY: recombinant Efb-O (Efb 68-98) (Staphylococcus aureus strain Newman, UniProt P08515 1-218 = GST)
- PROCEDURE TEXT: apparent Kd from half-maximal binding in ELISA (GraphPad Prism)
EXPERIMENTAL READOUT: Kd
Don't forget the unit after the number, please.

Sample answers from the record:
[
  {
    "BINDER": "FBE5-D9 (scFv, V domains shown) VH: QVQLVESGGGVVQPGRSLRLSCAASGFTFSSYGMHWVRQAPGKGLEWVAVISYDGSNKYYADSVKGRFTISRDNSKNTLYLQMNSLRAEDTAVYYCAKNQEWLVPGYWGQGTLVTVSS VL: QSALTQPASVSGSPGQSITISCTGTSSDVGGYNYVSWYQQHPGKAPKLMIYDVSNRPSGVSNRFSGSKSGNTASLTISGLQAEDEADYYCSSYTSSSTLVFGGGTKLTVL",
    "Kd": "2.68 nM"
  },
  {
    "BINDER": "FBE5-E5 (scFv, V domains shown) VH: QMQLVQSGGGVVQPGRSLRLSCAASGFTFSSYGMHWVRQAPGKGLEWVAVISYDGSNKYYADSVKGRFTISRDNSKNTLYLQMNSLRGEDTAVYYCAREGGWEPNGLDYWGQGTLVTVSS VL: QSVLTQPPSVSAAPGQKVTISCSGSSSNIGNNYVSWYQQLPGTAPKLLIYDNNKRPSGIPDRFSGSKSGTSATLGITGLQTGDEADYYCGTWDSSLSAEVFGGGTKLTVL",
    "Kd": "434 nM"
  }
]

Give the reported Kd for this binder. FBE5-F11 (scFv, V domains shown) VH: QVQLQESGGGVVQPGRSLRLSCAASGFTFSSYGMHWVRQAPGKGLEWVAVISYDGSNKYYADSVKGRFTISRDNSKNTLYLQMNSLRAEDTAVYYCAKDLASSGFDYWGQGTLVTVSS VL: QSVLTQPPSVSAAPGQKVTISCSGSSSNIGNNYVSWYQQLPGTAPKLLIYDNNKRPSGIPDRFSGSKSGTSATLGITGLQTGDEADYYCGTWDSSLSAEVFGGGTKLTVL
0.396 nM
